System: SN12C
Test: NCI tumour cell line growth inhibition, 48 h
Calls of active or inactive are those of the source. Cut-off read from the data, not from the text of the source: active = GI50 up to about 1.1 µM and inactive = higher.
For each record, write down the corresponding GI50.

> print(dat)
                                   molecule  value.kind          assay.value
1  COc1cc([C@@H]2c3cc4c(cc3[C@@H](NCc3ccccc3F)C3COC(=O)[C@@H]32)OCO4)cc(OC)c1O (stereo not given in full)        GI50   2.62 µM (inactive)
2  N=C(N)N/N=C(\c1ccc(F)cc1)c1ccc(C(F)(F)F)cc1        GI50     0.64 µM (active)
3  COC(C)C(O)(C(=O)OCC1=CCN2CCC(O)C12)C(C)(C)O (stereo not given)        GI50  > 100 µM (inactive)
4  CCOC(=O)Oc1cc2c(c(OC)c1OC)-c1ccc(OC)c(=O)cc1C(NC(C)=O)CC2 (stereo not given)        GI50    0.034 µM (active)
5  COC(=O)c1ccc2c(c1)S/C(=C/c1ccc3ccc4cccc5ccc1c3c45)S2        GI50  > 100 µM (inactive)
6        COc1ccc(-c2cc(O)c3cc(OC)ccc3n2)cc1        GI50  > 100 µM (inactive)

Would you mind listing GI50 for each of the following molecules?
1. CC(=O)/N=C1\C=C(NC(C)=O)C(=O)c2ccccc21
2. CC1=NN(c2nc(N)nc(CSc3cc(Cl)c(C)cc3S(N)(=O)=O)n2)C(C)(C)C1
3. CC(C)(C)OC(=O)NC(CSCc1ccc(C(=O)c2ccccc2)cc1)C(=O)N1CCN(CCCCN2c3ccccc3Sc3cc(N=[N+]=[N-])ccc32)CC1 (stereo not given)
4. CC1(C)OC2COC3(CNO)OC(C)(C)OC3C2O1 (stereo not given)

1: 1.78 µM (inactive); 2: > 10 µM (inactive); 3: > 100 µM (inactive); 4: > 100 µM (inactive)

* * *

System: HCC 2998
Assay: NCI tumour cell line growth inhibition, 48 h
Calls of active or inactive are those of the source. No stated cut-off is given here; in the data, active = GI50 up to about 1.1 µM and inactive = higher.
Return exactly one item of label 1 = active, label 0 = inactive

Compound	Tgt	Category
[N-]=[N+]=NC(CCl)c1cn([C@H]2C[C@H](O)[C@@H](CO)O2)c(=O)[nH]c1=O (some centres undefined)	HCC 2998	label 0

Consider now this further compound.
For this compound, state the assay outcome: N=C(N)NS(=O)(=O)c1ccc(NC(=O)c2cccn3c(=O)c4ccccc4nc23)cc1
label 0

* * *

Test system: SK-OV-3
Test: NCI tumour cell line growth inhibition, 48 h
Active and inactive are the calls of the source. Cut-off read from the data, not from the text of the source: active = GI50 up to about 1.1 µM and inactive = higher.
For each record, write down the corresponding GI50.

> print(dat)
                                   molecule  value.kind          assay.value
1  O=C(NCCCCCCNC(=O)n1cc(F)c(=O)[nH]c1=O)NCCCOCCOCCCNC(=O)C(O)C(O)C(O)C(O)CO (centres undefined)        GI50  > 2.5 µM (inactive)

Would you mind listing GI50 for each of the following molecules?
1. O=[N+]([O-])c1ccc(N2N=C(c3ccc4ccccc4c3O)CC2c2ccc(Cl)cc2)c([N+](=O)[O-])c1 (centres undefined)
2. O=C(/C=C/c1cccc(Oc2ccccc2)c1)NCc1ccc(C(=O)NCc2ccccc2)cc1
3. O=C(Nc1ccccc1)N(CCCCN(Cc1ccccc1)C(=O)Nc1ccccc1)Cc1ccccc1
4. CCNc1ncnc2sc(SCc3ccccc3)nc12

80.2 µM (inactive)
4.55 µM (inactive)
> 100 µM (inactive)
> 100 µM (inactive)
